Test: Confirmation Concentration-Response Assay for Enhancers of SMN2 Splice Variant Expression for Further Probe SAR
Settings: HEK293 SMN2 exon7-luciferase splicing reporter, luminescence, 30-36 h; series mostly up to 46.1 µM
Records with an inconclusive call do not appear. Active and inactive are the calls of the source. Calls follow the shape of the dose curve; as a rule, active = well fitted activation curve with a large enough effect; inconclusive = small, poorly fitted or top-dose-only effect; inactive = no such curve, though single readings can be large or run the other way.
Answer with one of the outcomes given here: class 1 (active), class 0 (inactive)

QUERY: Recorded test outcome, item CS(=O)(=O)N1CCN(c2nc(-c3ccc(Br)cc3)cs2)CC1
RESULT: class 0

QUERY: Recorded test outcome, item CS(=O)(=O)c1ccc(-c2csc(N3CCC(C(N)=O)CC3)n2)cc1
RESULT: class 0

QUERY: Recorded test outcome, item NC(=O)C1CCN(c2nccc(Cl)n2)CC1
RESULT: class 0

QUERY: Recorded test outcome, item CC(=O)C1CCN(c2ncc(-c3ccc4c(c3)OCCCO4)s2)CC1
RESULT: class 0

QUERY: Recorded test outcome, item CC(=O)N1CCN(c2nc(-c3ccc(Br)cc3)cs2)CC1
RESULT: class 1

QUERY: Recorded test outcome, item NC(=O)C1CCN(c2ncc(-c3cccc(N4CCOCC4)c3)s2)CC1
RESULT: class 1

QUERY: Recorded test outcome, item O=C(O)C1CCN(c2ncc(-c3ccc4c(c3)OCCCO4)s2)CC1
RESULT: class 1

QUERY: Recorded test outcome, item CC(C)Oc1cccc(-c2cnc(N3CCC(C(N)=O)CC3)s2)c1
RESULT: class 1

QUERY: Recorded test outcome, item NC(=O)C1CCN(c2nc(-c3ccc(N)cc3)cs2)CC1
RESULT: class 0

QUERY: Recorded test outcome, item O=C(c1ccccc1)N1CCN(c2nc(-c3ccc(Br)cc3)cs2)CC1
RESULT: class 0

QUERY: Recorded test outcome, item O=C(O)C1CCN(c2nc(-c3ccc(Br)cc3)cs2)CC1
RESULT: class 1

QUERY: Recorded test outcome, item NC(=O)C1CCN(c2nc(-c3ccc4c(c3)CCO4)cs2)CC1
RESULT: class 1

QUERY: Recorded test outcome, item NC(=O)C1CCN(c2nc(-c3ccc(Cl)cc3)cs2)CC1
RESULT: class 1

QUERY: Recorded test outcome, item CSc1ccc(-c2cnc(N3CCC(C(N)=O)CC3)s2)cc1
RESULT: class 1

QUERY: Recorded test outcome, item CC(=O)NC1CCN(c2nc(-c3ccc(Br)cc3)cs2)CC1
RESULT: class 0

QUERY: Recorded test outcome, item CC(C)(C)OC(=O)NC1CCN(c2nc(-c3ccc(Br)cc3)cs2)CC1
RESULT: class 0

QUERY: Recorded test outcome, item CNC(=O)C1CCN(c2nc(-c3ccc(Br)cc3)cs2)CC1
RESULT: class 1

QUERY: Recorded test outcome, item Cc1cnc(N2CCC(C(N)=O)CC2)nc1-c1cccc(N(C)C)c1
RESULT: class 0

QUERY: Recorded test outcome, item NC(=O)C1CCN(c2nc(-c3ccc4c(c3)OCO4)cs2)CC1
RESULT: class 1

QUERY: Recorded test outcome, item NC(=O)C1CCN(c2ncc(-c3ccc(Br)cc3)s2)CC1
RESULT: class 1

QUERY: Recorded test outcome, item Cc1ccc(-c2cnc(N3CCC(C(N)=O)CC3)s2)cc1
RESULT: class 1

QUERY: Recorded test outcome, item CN(C)c1cccc(-c2cc(N3CCC(C(N)=O)CC3)ncn2)c1
RESULT: class 1

QUERY: Recorded test outcome, item Cc1ccc(-c2ccnc(N3CCC(C(N)=O)CC3)n2)cc1
RESULT: class 1

QUERY: Recorded test outcome, item NC(=O)C1CCN(c2nc(-c3ccc(N4CCCCC4)nc3)cs2)CC1
RESULT: class 1

QUERY: Recorded test outcome, item Brc1ccc(-c2csc(N3CCNCC3)n2)cc1
RESULT: class 0

QUERY: Recorded test outcome, item NC(=O)C1CCN(c2ncc(-c3ccc4c(c3)OC(F)(F)O4)s2)CC1
RESULT: class 1

QUERY: Recorded test outcome, item Brc1ccc(-c2csc(N3CCC(c4nn[nH]n4)CC3)n2)cc1
RESULT: class 1

QUERY: Recorded test outcome, item CN(C)c1cccc(-c2ncc(F)c(N3CCC(C(N)=O)CC3)n2)c1
RESULT: class 1

QUERY: Recorded test outcome, item O=C(Nc1ccccc1)C1CCN(c2nc(-c3ccc(Br)cc3)cs2)CC1
RESULT: class 1

QUERY: Recorded test outcome, item CN(C)c1cccc(-c2nccc(N3CCC(C(N)=O)CC3)n2)c1
RESULT: class 1

QUERY: Recorded test outcome, item COc1ccccc1-c1csc(N2CCC(C(N)=O)CC2)n1
RESULT: class 0

QUERY: Recorded test outcome, item CCOC(=O)C1CCN(c2nc(-c3ccc(Br)cc3)cs2)CC1
RESULT: class 1

QUERY: Recorded test outcome, item NC(=O)C1CCN(c2ncc(Br)cn2)CC1
RESULT: class 0

QUERY: Recorded test outcome, item Nc1nc(N)c2c(OCC3CCN(Cc4ccccc4F)CC3)cccc2n1
RESULT: class 0

* * *

Assay: Confirmation Concentration-Response Assay for Enhancers of SMN2 Splice Variant Expression for Further Probe SAR
Settings: HEK293 SMN2 exon7-luciferase splicing reporter, luminescence, 30-36 h; series mostly up to 46.1 µM
Records with an inconclusive call do not appear. Active and inactive are the calls of the source. Calls come from the whole dose curve; as a rule, active = well fitted activation curve with a large enough effect; inconclusive = small, poorly fitted or top-dose-only effect; inactive = no such curve, though single readings can be large or run the other way.
Hi there, I'd appreciate the recorded Potency for every entry that follows.

QUERY: State the recorded Potency for this entry: NC(=O)C1CCN(c2ncnc(-c3ccc4c(c3)OCCCO4)n2)CC1
RESULT: 2440 nM (active)

QUERY: State the recorded Potency for this entry: c1c[nH]c(C2CCN(c3ncc(-c4ccc5c(c4)OCCCO5)s3)CC2)n1
RESULT: 2180 nM (active)

QUERY: State the recorded Potency for this entry: CN(C)c1cccc(-c2nc(N3CCC(C(N)=O)CC3)ncc2F)c1
RESULT: 345 nM (active)

QUERY: State the recorded Potency for this entry: NC(=O)C1CCN(c2nnc(-c3ccc4c(c3)OCCCO4)s2)CC1
RESULT: 97.2 nM (active)

QUERY: State the recorded Potency for this entry: CN(C)c1cccc(-c2cnc(N3CCC(C(N)=O)CC3)nc2)c1
RESULT: 547 nM (active)

QUERY: State the recorded Potency for this entry: CC(C)Oc1cccc(-c2ccnc(N3CCC(C(N)=O)CC3)n2)c1
RESULT: 154 nM (active)

* * *

Test: Confirmation Concentration-Response Assay for Enhancers of SMN2 Splice Variant Expression for Further Probe SAR
Conditions: HEK293 SMN2 exon7-luciferase splicing reporter, luminescence, 30-36 h; series mostly up to 46.1 µM
Results filed as inconclusive are left out. Calls of active or inactive are those of the source. Calls come from the whole dose curve; as a rule, active = well fitted activation curve with a large enough effect; inconclusive = small, poorly fitted or top-dose-only effect; inactive = no such curve, though single readings can be large or run the other way.
Answer with one of the outcomes given here: active, inactive

QUERY: Recorded test outcome, item NC(=O)C1CCN(c2nccc(-c3ccc(Br)cc3)n2)CC1
RESULT: active

QUERY: Recorded test outcome, item CN(C)c1cccc(-c2cnc(N3CCC(c4ncc[nH]4)CC3)s2)c1
RESULT: active

QUERY: Recorded test outcome, item NC(=O)C1CCN(c2ncc(-c3cccc(N4CCCCC4)c3)s2)CC1
RESULT: active

QUERY: Recorded test outcome, item NC(=O)C1CCN(c2ncc(-c3cccc(N4CCCC4)c3)s2)CC1
RESULT: active

QUERY: Recorded test outcome, item NC(=O)C1CCN(c2nc(-c3ccc4c(c3)OCCCO4)cs2)CC1
RESULT: active

QUERY: Recorded test outcome, item COc1ccc(-c2cnc(N3CCC(C(N)=O)CC3)s2)cc1OC
RESULT: active

QUERY: Recorded test outcome, item NC(=O)C1CCN(c2ncc(-c3ccc(Cl)cc3)s2)CC1
RESULT: active

QUERY: Recorded test outcome, item CC(=O)C1CCN(c2ncc(-c3cccc(N(C)C)c3)s2)CC1
RESULT: active

QUERY: Recorded test outcome, item N#Cc1ccccc1-c1csc(N2CCC(C(N)=O)CC2)n1
RESULT: inactive

QUERY: Recorded test outcome, item CCOC(=O)C1CCN(c2ncc(-c3ccc4c(c3)OCCCO4)s2)CC1
RESULT: active

QUERY: Recorded test outcome, item NC1CCN(c2nc(-c3ccc(Br)cc3)cs2)CC1
RESULT: active
